Give measured Ki for each item. Keep answers brief.
Molecular target: recombinant human SOS1 polypeptide (amino acids 560-1049) (Homo sapiens)
Construct: corresponding to amino acids 560-1049, expressed in E. Coli; made in house; host or cells: E. coli
Sequence (Q07889 560-1049): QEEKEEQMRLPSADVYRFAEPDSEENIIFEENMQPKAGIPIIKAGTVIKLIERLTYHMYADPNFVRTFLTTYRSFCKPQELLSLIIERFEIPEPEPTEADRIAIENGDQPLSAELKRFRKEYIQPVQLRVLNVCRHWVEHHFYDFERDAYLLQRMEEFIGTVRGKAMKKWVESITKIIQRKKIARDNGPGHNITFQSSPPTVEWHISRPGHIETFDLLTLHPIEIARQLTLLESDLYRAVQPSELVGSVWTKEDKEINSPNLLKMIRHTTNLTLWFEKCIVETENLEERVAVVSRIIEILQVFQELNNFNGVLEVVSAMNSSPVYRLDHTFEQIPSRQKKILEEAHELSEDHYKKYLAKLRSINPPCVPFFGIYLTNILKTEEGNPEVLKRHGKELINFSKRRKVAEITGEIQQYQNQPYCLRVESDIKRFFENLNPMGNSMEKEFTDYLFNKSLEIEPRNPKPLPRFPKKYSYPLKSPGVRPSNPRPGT
Assay: HTRF displacement assay: inhibition of labeled tracer binding to SOS1
Settings: Table A1, Morrison equation for competitive binding
Structures can show the parent of a compound that is named as a salt.
Just the number plus its unit, please.

Consider the worked cases shown below.
CC(=O)N1CC2(CCN2c2cc3c(N[C@H](C)c4cccc(C#N)c4C)nnc(C)c3cc2F)C1 [Example P-216, formic acid salt] : 1.98 nM
Cc1nnc(N[C@H](C)c2cccc(C(F)F)c2F)c2cc(N3CCC34CN(CCCF)C4)ncc12 [Example P-226, formic acid salt] : 0.288 nM

Prompt: Which Ki reading was recorded for the compound `Cc1c(C#N)cccc1[C@@H](C)Nc1nnc(C)c2cnc(OCCNC(=O)CCOC34CC5CC(CC(C5)C3)C4)cc12` ?
Completion: 542 nM

----------
Biological target: recombinant human SOS1 polypeptide (amino acids 560-1049) (Homo sapiens)
Construct: corresponding to amino acids 560-1049, expressed in E. Coli; made in house; host or cells: E. coli
Sequence (Q07889 560-1049): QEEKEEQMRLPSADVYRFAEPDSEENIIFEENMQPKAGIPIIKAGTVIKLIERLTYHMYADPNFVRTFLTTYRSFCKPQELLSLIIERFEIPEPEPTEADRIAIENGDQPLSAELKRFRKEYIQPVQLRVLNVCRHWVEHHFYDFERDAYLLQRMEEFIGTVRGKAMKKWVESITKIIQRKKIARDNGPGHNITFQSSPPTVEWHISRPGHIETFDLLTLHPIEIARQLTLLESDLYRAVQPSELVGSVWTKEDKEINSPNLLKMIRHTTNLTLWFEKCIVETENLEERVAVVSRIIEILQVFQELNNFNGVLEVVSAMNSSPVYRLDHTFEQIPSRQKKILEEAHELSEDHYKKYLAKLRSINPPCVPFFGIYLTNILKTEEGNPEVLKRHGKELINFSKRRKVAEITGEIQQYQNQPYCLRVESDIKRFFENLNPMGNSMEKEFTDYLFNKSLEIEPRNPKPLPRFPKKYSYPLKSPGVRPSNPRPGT
Assay: HTRF displacement assay: inhibition of labeled tracer binding to SOS1
Conditions: Table A, Morrison equation for competitive binding
measuredParameter: Ki
Please provide the amount together with its unit, number first.

As a guide, the following entries are already answered.
Cc1c(C#N)cccc1[C@@H](C)Nc1nnc(C)c2cnc(N3CC(C)(N4CCC4)C3)cc12 : 1.59 nM
Cc1nnc(N[C@H](C)c2ccc(C#N)cc2F)c2cc(N3CCN4CCOC[C@@H]4C3)ncc12 : 17.7 nM
Cc1nnc(N[C@H](C)c2cccc3c2OCC3(F)F)c2cc(N3CC4(CN(C)C4)C3)ncc12 : 0.357 nM
CCN1CCN(c2cc3c(N[C@H](C)c4cccc(C#N)c4C)nnc(C)c3cn2)[C@H](C)C1 : 0.789 nM
Cc1c(C#N)cccc1[C@@H](C)Nc1nnc(C)c2cnc(N3C[C@H]4CCCN[C@H]4C3)cc12 (single isomer, unassigned) : 0.992 nM

Take each entry in turn and give its Ki.
1. Cc1c(C#N)cccc1[C@@H](C)Nc1nnc(C)c2cnc(N3CC4(CN(CCO)C4)C3)cc12
2. Cc1nnc(N[C@H](C)c2cccc(C(C)(F)F)c2F)c2cc(N3CCN(C)CC3)c(F)cc12
3. Cc1c(C#N)cccc1[C@@H](C)Nc1nnc(C)c2cnc(N(C)[C@@H]3CCNC3)cc12
4. Cc1c([C@@H](C)Nc2nnc(C)c3cnc(N4CC5(CC(N(C)C)C5)C4)cc23)cccc1C(F)(F)F
5. Cc1c(C#N)cccc1[C@@H](C)Nc1nnc(C)c2cnc(N3CCN(C(=O)[C@H]4CCCN4)CC3)cc12
6. CCN(CC)C1(C)CN(c2cc3c(N[C@H](C)c4cccc(C#N)c4C)nnc(C)c3cn2)C1

Completion:
["0.797 nM", "0.742 nM", "1.11 nM", "0.106 nM", "0.32 nM", "2.22 nM"]

Can you give me Ki for all of these, one by one?
1. Cc1c(C#N)cccc1[C@@H](C)Nc1nnc(C)c2cnc(N3CC4(CNC4)C3)cc12
2. CCN1CCN(c2cc3c(N[C@H](C)c4cccc(C#N)c4C)nnc(C)c3cn2)C[C@@H]1C

Completion:
1: 0.541 nM; 2: 0.836 nM
